target.of.assay: T1, human soluble urokinase plasminogen activator receptor (suPAR) (human, UniProt Q03405 23-303, limits assumed)
T1 construct: Target antigen of the off-rate screen; also called hsuPAR; human suPAR
protocol.summary: off-rate (kdis) screen of scFv clones, biosensor (Octet)
experimental.endpoint: koff (s⁻¹)
Number only, in s⁻¹; omit the unit.

May I ask what koff has been recorded for suPAR_DB01_D05 (scFv, V domains shown, screened as scFv) VH: QVQLVQSGAEVKKPGASVKVSCKASGYTFTGSYVHWVRQAPGQGLEWMGWIDHENGNTIYDQKFQGRVTMTRDTSTSTVYMELSSLRSEDTAVYYCARGYDVDWFVYWGQGTLVTVSS VL: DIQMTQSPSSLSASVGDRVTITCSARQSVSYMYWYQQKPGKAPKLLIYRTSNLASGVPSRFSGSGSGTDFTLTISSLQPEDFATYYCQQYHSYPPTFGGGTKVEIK ?
0.00224

May I ask what koff has been recorded for suPAR_DB01_C07 (scFv, V domains shown, screened as scFv) VH: QVQLVQSGAEVKKPGASVKVSCKASGYTFTSYYMHWVRQAPGQGLEWMGWIDHENGSTSYDQKFQGRVTMTRDTSTSTVYMELSSLRSEDTAVYYCARGYDVDWFVYWGQGTLVTVSS VL: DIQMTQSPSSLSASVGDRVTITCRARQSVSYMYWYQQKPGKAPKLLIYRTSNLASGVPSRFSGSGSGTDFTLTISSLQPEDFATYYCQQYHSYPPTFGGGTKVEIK ?
0.00164

May I ask what koff has been recorded for suPAR_DB01_E07 (scFv, V domains shown, screened as scFv) VH: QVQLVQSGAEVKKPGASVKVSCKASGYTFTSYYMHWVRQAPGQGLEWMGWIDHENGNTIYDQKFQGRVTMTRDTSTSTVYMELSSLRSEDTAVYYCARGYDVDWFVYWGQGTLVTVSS VL: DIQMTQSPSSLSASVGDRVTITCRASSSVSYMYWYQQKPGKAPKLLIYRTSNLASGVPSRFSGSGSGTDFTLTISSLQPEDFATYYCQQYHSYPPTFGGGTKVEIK ?
0.00228

May I ask what koff has been recorded for suPAR_DB01_E02 (scFv, V domains shown, screened as scFv) VH: QVQLVQSGAEVKKPGASVKVSCKASGYTFTSYYMHWVRQAPGQGLEWMGWIDPEGGSTIYDQKFQGRVTMTRDTSTSTVYMELSSLRSEDTAVYYCARGYDVDWFVYWGQGTLVTVSS VL: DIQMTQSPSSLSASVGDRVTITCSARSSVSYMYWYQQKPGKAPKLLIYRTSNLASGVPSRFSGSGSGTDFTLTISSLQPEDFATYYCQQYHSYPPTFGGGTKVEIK ?
0.00469

May I ask what koff has been recorded for suPAR_DB01_B11 (scFv, V domains shown, screened as scFv) VH: QVQLVQSGAEVKKPGASVKVSCKASGYTFTDYYMHWVRQAPGQGLEWMGWIDHENGSTSYDQKFQGRVTMTRDTSTSTVYMELSSLRSEDTAVYYCARGYDVDWFVYWGQGTLVTVSS VL: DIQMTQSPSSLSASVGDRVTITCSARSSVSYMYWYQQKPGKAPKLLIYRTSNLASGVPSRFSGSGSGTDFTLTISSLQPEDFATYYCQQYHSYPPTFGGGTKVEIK ?
0.00273
